Reference for the values: patent US4387098A

# systemName: benzodiazepine receptor
# measurementDescription: benzodiazepine receptor affinity, [^3 H] flunitrazepam radio receptor binding (modified Squires and Braestrup) on rat forebrain membrane preparations
# condition: 0.6 nM [^3 H] flunitrazepam, read-out: IC50, inhibition of the specific binding of [^3 H] flunitrazepam by 50%
pIC50: −log10 of the molar value.
This listing pairs molecules with measured pIC50.
measurementType: pIC50

| molecule | systemName | recordedMeasurement |
| --- | --- | --- |
| COc1ccc2c(c1)c(OC)cc1nc(C(=O)c3ccccc3)cn12 [Example 14] | benzodiazepine receptor | 7.29 |
| CCCCc1ccc2c(c1)c(OC)cc1nc(C(=O)c3ccccc3)cn12 [Example 16] | benzodiazepine receptor | 7.24 |
| COc1cc2nc(C(=O)c3ccccc3)cn2c2ccc(C(C)C)cc12 [Example 15] | benzodiazepine receptor | 7.60 |
| COc1cc2nc(C(=O)c3ccccc3)cn2c2ccccc12 [Example 4] | benzodiazepine receptor | 7.57 |
| CC(C)Oc1cc2nc(C(=O)c3ccccc3)cn2c2ccccc12 [Example 8] | benzodiazepine receptor | 6.33 |

----------
# measurementDescription: anxiolytic activity, one-day lick shock method of Vogel et al
# Format: in vivo
# condition: po, 24 h, orally, read-out: minimum effective dose (MED) at which there was an observed increase in shocks above control
This listing pairs compounds with measured minimal effective dose.

| smilesStructure | readingUnit | minimal effective dose |
| --- | --- | --- |
| CCc1ccc2c(c1)c(OC)cc1nc(C(=O)c3ccccc3)cn12 | mg/kg | 20 |
| COc1cc2nc(C(=O)c3ccccc3)cn2c2ccccc12 | mg/kg | 25 |
| CCc1ccc2c(c1)c(OC)cc1nc(C(C)=O)cn12 | mg/kg | 20 |
| COc1cc2nc(C(=O)c3ccccc3)cn2c2ccc(C(C)C)cc12 | mg/kg | 10 |
| CCCCc1ccc2c(c1)c(OC)cc1nc(C(=O)c3ccccc3)cn12 | mg/kg | 25 |
| COc1cc2nc(C(=O)c3ccccc3)cn2c2ccc(C)cc12 | mg/kg | 25 |

----------
# systemName: benzodiazepine receptor
# measurementDescription: benzodiazepine receptor affinity, [^3 H] flunitrazepam radio receptor binding (modified Squires and Braestrup) on rat forebrain membrane preparations
# condition: 0.6 nM [^3 H] flunitrazepam, read-out: IC50, inhibition of the specific binding of [^3 H] flunitrazepam by 50%
pIC50: −log10 of the molar value.
Output T for pIC50 not less than 7; output F otherwise.

| molecule | category |
| --- | --- |
| CCc1ccc2c(c1)c(OC)cc1nc(C(=O)c3ccccc3)cn12 [Example 1] | T |
| COc1cc2nc(C(=O)c3ccccc3)cn2c2c(OC)cccc12 [Example 19] | F |
| COc1ccc2c(OC)cc3nc(C(=O)c4ccccc4)cn3c2c1 [Example 3] | F |
| COc1ccc(C(=O)c2cn3c(cc(OC)c4ccccc43)n2)cc1 [Example 18] | T |
| COc1cc2nc(C(=O)c3ccc(C)cc3)cn2c2ccccc12 [Example 17] | T |

----------
# systemName: benzodiazepine receptor
# measurementDescription: benzodiazepine receptor affinity, [^3 H] flunitrazepam radio receptor binding (modified Squires and Braestrup) on rat forebrain membrane preparations
# condition: 0.6 nM [^3 H] flunitrazepam, read-out: IC50, inhibition of the specific binding of [^3 H] flunitrazepam by 50%
# Procedure: A. The affinity of the compounds for the benzodiazepine receptor was assessed using the radioligand [^3 H] flunitrazepam and modifications of the original radio receptor binding method of Squires and Braestrup (Nature, 1977, Vol. 266, p. 732). The values of Table V are nanomolar concentrations of test compound which inhibited the specific binding of 0.6 nM[^3 H] flunitrazepam to rat forebrain membrane preparations by 50% (IC50 nM).
measurementType: IC50

| smilesStructure | measurementType | recordedMeasurement |
| --- | --- | --- |
| CCOc1cc2nc(C(=O)c3ccccc3)cn2c2ccccc12 | IC50 | 540 nM |
| COc1cc2nc(C(=O)c3ccccc3)cn2c2cc(Cl)ccc12 | IC50 | 340 nM |
| CCc1ccc2c(c1)c(OC)cc1nc(C(=O)c3ccc(OC)cc3)cn12 | IC50 | 30 nM |
| CCc1ccc(C(=O)c2cn3c(cc(OC)c4cc(CC)ccc43)n2)cc1 | IC50 | 51 nM |
| CSc1cc2nc(C(=O)c3ccccc3)cn2c2ccccc12 | IC50 | 500 nM |
| COc1cc2nc(C(=O)c3ccccc3)cn2c2ccc(Oc3ccccc3)cc12 | IC50 | 210 nM |
| COc1cc2nc(C(=O)c3ccc(Cl)cc3)cn2c2ccccc12 | IC50 | 96 nM |
| CCc1ccc2c(c1)c(OC)cc1nc(C(C)=O)cn12 | IC50 | 1300 nM |
| COc1cc2nc(C(=O)c3ccccc3)cn2c2ccc(F)cc12 | IC50 | 74 nM |
| COc1cc2nc(C(=O)c3ccccc3)cn2c2ccc(C)cc12 | IC50 | 21 nM |
| CCCOc1cc2nc(C(=O)c3ccccc3)cn2c2ccccc12 | IC50 | 1000 nM |
| COc1cc2nc(C(=O)c3ccccc3)cn2c2ccc(C3CCCCC3)cc12 | IC50 | 10000 nM |
| COc1cc2nc(C(=O)c3ccccc3)cn2c2cc(C)ccc12 | IC50 | 290 nM |
| COc1cc2nc(C(=O)c3ccccc3)cn2c2cccc(C)c12 | IC50 | 11 nM |
| COc1cc2nc(C(=O)c3cccs3)cn2c2ccccc12 | IC50 | 24 nM |
